All figures here come from PubChem BioAssay (NCI).

Test system: UACC-257 melanoma
Experiment: NCI tumour cell line growth inhibition, 48 h
recorded metric: TGI (µM)
Use µM as the unit, but write only the number.

Measured TGI, O=Cc1ccc2c(c1)CC1(C2)Cc2ccc3c(c2C1)CCC3 (stereo not given) : 33

Measured TGI, CC(=O)OC1Oc2ccccc2-c2oc(=O)c(-c3cc(=O)oc4cc(O)ccc34)cc21 (stereo not given) : 79

Measured TGI, C/C1=C\CC[C@@]2(C)O[C@@H]2[C@H]2OC(=O)[C@@H](CN(C)C)[C@@H]2CC1 : 28.4

Measured TGI, CCN1CCN(c2ccc(Nc3cc(N(C)C(=O)Nc4c(Cl)c(OC)cc(OC)c4Cl)ncn3)cc2)CC1 : 3.7
